From: ChEMBL document CHEMBL3745713

Tested on: MCF7
Experiment: Cytotoxicity against human MCF7 cells assessed as cell growth at 5 uM measured at 72 hrs by CyQuant proliferation assay relative to control
Type: functional
Details: MCF7, 72 h, read-out: Activity
READOUT_LABEL: growth at 5 µM (%)
One number for each entry, in %.

Reference set (3 entries):
molecule=COC1=C(Br)[C@@H](O)[C@]2(C=C1Br)CC(C(=O)NCCCOc1c(Br)cc(CCNC(=N)N)cc1Br)=NO2 readout_label="growth at 5 µM" readout_value=98
molecule="CCCCCCC(C)CCCCCCCC(=O)NCCc1cc(Br)c(OCCCNC(=O)C2=NO[C@@]3(C=C(Br)C(OC)=C(Br)[C@H]3O)C2)c(Br)c1 (some centres not stated)" readout_label="growth at 5 µM" readout_value=104
molecule="CCCCC(C)CCC/C=C\\CCCCCCC(=O)NCCc1cc(Br)c(OCCCNC(=O)C2=NO[C@@]3(C=C(Br)C(OC)=C(Br)[C@H]3O)C2)c(Br)c1 (some centres not stated)" readout_label="growth at 5 µM" readout_value=105

List growth at 5 µM for every entry below, keeping the order given.
1. COc1c(Br)cc(C/C(=N\O)C(=O)NCCc2cc(Br)c(OCCCN)c(Br)c2)cc1Br
2. CNCCCOc1c(Br)cc(CCNC(=O)/C(Cc2cc(Br)c(OC)c(Br)c2)=N/O)cc1Br
3. COC1=C(Br)[C@@H](O)[C@]2(C=C1Br)CC(C(=O)NCCCOc1c(Br)cc(CCN)cc1Br)=NO2
4. COC1=C(Br)[C@@H](O)[C@]2(C=C1Br)CC(C(=O)NCCCOc1c(Br)cc(C(=O)O)cc1Br)=NO2

### Response
[95, 50, 36, 86]

* * *

Experiment: Cytotoxicity against mouse NIH/3T3 cells assessed as cell growth at 25 uM measured at 72 hrs by CyQuant proliferation assay relative to control
Assay type: cell-based, NIH3T3
Conditions: read-out: Activity
READOUT_LABEL: viability at 72 h, 25 µM (%)
Answers are plain numbers, in %.

### Prompt Endpoint output: viability at 72 h, 25 µM of O=C(CCCCCCC(=O)Nc1ccccc1)NO . Value?
### Response 46

* * *

Test system: A549
Test: Cytotoxicity against human A549 cells assessed as cell growth at 50 uM measured at 72 hrs by CyQuant proliferation assay relative to control
Assay type: functional
Conditions: A549, 72 h, read-out: Activity
READOUT_LABEL: growth at 50 µM

Reference set, count: 3
molecule="CCCCCCC(C)CCCCCCCCC(=O)NCCc1cc(Br)c(OCCCNC(=O)C2=NO[C@@]3(C=C(Br)C(OC)=C(Br)[C@H]3O)C2)c(Br)c1 (some centres undefined)" readout_label="growth at 50 µM" readout_value=106%
molecule=CNCCCOc1c(Br)cc(CCNC(=O)/C(Cc2ccc(O)c(Br)c2)=N/O)cc1Br readout_label="growth at 50 µM" readout_value=64%
molecule="CCCCCCC(C)CCCCCCCC(=O)NCCc1cc(Br)c(OCCCNC(=O)C2=NO[C@@]3(C=C(Br)C(OC)=C(Br)[C@H]3O)C2)c(Br)c1 (some centres undefined)" readout_label="growth at 50 µM" readout_value=105%

Note: attention shifts to another entry.
### Prompt I am curious: what growth at 50 µM value has been reported for CNCCCOc1c(Br)cc(CCNC(=O)/C(Cc2cc(Br)c(OC)c(Br)c2)=N/O)cc1Br ?
### Response 11%
